Tested on: MOLM14 D835Y cells
Assay: MOLM14 D835Y cell viability assay (Cell Titer Glo)
Assay type: cell-based
Conditions: Homo sapiens, MOLM-14, 48 h, cell viability, Cell Titer Glo, 48 hours; read-out: MOLM14 D835Y IC50
parameter: pIC50
Friendly reminder that pIC50 comes from taking -log10 of the concentration in mol/L.

I am curious: what pIC50 value has been reported for COc1cc2ncc(-c3ccnc(N[C@H]4CNCC[C@@H]4F)n3)n2nc1C1CCCC1 [Compound 85a] ?
7.96

I am curious: what pIC50 value has been reported for COc1cc2ncc(-c3nc(N[C@@H]4CCCNC4)ncc3F)n2nc1C1CC(C)(C)C1 [Compound 56a] ?
8.10

I am curious: what pIC50 value has been reported for c1cc(-c2cnc3cc(OC4CC4)c(C4CC4)nn23)nc(N[C@@H]2CCCNC2)n1 [Compound 11a] ?
7.66

I am curious: what pIC50 value has been reported for COc1cc2ncc(-c3ccnc(N[C@@H]4CCCNC4)n3)n2nc1C1CC2(CCC2)C1 [Compound 76a] ?
7.00

I am curious: what pIC50 value has been reported for CC(C)(O)c1ccc2ncc(-c3nc(N[C@@H]4CCCNC4)ncc3F)n2c1 [Compound 48a] ?
7.44

I am curious: what pIC50 value has been reported for COc1cc2ncc(-c3ccnc(N[C@H]4CNC[C@@H]4F)n3)n2nc1C1CC(C)(C)C1 [Compound 80a] ?
7.05

I am curious: what pIC50 value has been reported for COc1cc2ncc(-c3nc(N[C@@H]4CCCNC4)ncc3Cl)n2nc1C1CC1 [Compound 102a] ?
7.64

I am curious: what pIC50 value has been reported for FC(F)COc1cc2ncc(-c3ccnc(N[C@@H]4CCCNC4)n3)n2nc1C1CC1 [Compound 6a] ?
8.05

I am curious: what pIC50 value has been reported for COc1cc2ncc(-c3nc(N[C@H]4CNCC[C@@H]4F)ncc3F)n2nc1N1CCS(=O)(=O)CC1 [Compound 122a] ?
7.96

I am curious: what pIC50 value has been reported for COc1cc2ncc(-c3ccnc(N[C@H]4CNCC[C@@H]4F)n3)n2nc1C1CCCCC1 [Compound 88a] ?
7.60

I am curious: what pIC50 value has been reported for F[C@H]1CCNC[C@@H]1Nc1nccc(-c2cnc3cc(OC4CC4)c(C4CC4)nn23)n1 [Compound 12a] ?
7.64

I am curious: what pIC50 value has been reported for COc1cc2ncc(-c3nc(N[C@H]4CNC[C@@H]4F)ncc3F)n2nc1C1CCCC1 [Compound 61a] ?
8.52

I am curious: what pIC50 value has been reported for COc1cc2ncc(-c3ccnc(N[C@@H]4CCCNC4)n3)n2nc1C1CCCCC1 [Compound 87a] ?
7.55

I am curious: what pIC50 value has been reported for CC(O)(c1ccc2ncc(-c3nc(N[C@H]4CNCC[C@@H]4F)ncc3F)n2c1)C(F)(F)F (single isomer, unassigned) [Compound 34a] ?
7.29

I am curious: what pIC50 value has been reported for COc1cc2ncc(-c3nc(N[C@H]4CNCC[C@@H]4F)ncc3F)n2nc1C12CC(C1)C2 [Compound 69a] ?
8.52

I am curious: what pIC50 value has been reported for COc1cc2ncc(-c3nc(N[C@@H]4CCCNC4)ncc3F)n2nc1C(C)(C)O [Compound 43a] ?
7.64

I am curious: what pIC50 value has been reported for FC(F)COc1cc2ncc(-c3ccnc(N[C@H]4CNCC[C@@H]4F)n3)n2nc1C1CC1 [Compound 4a] ?
8.05
